- protocol_description: log POW, n-octanol/water partition coefficient, OECD Test No. 117
- Format: physicochemical
- test_context: OECD Test No. 117 at 25° C.
Provide the reported log POW (25° C.) of each item.
Answers are plain numbers.

Would you please look over these solved cases?
compound | log POW (25° C.)
CC(CO)CO | −0.6
CCC(O)CO (centres unmarked) | −0.59
CC(O)CCO (centres unmarked) | −0.92
CCCCCCC(O)CO (centres unmarked) | 2.1

# input for lookup
Noted for OCCCO : its log POW (25° C.) reads 0.71

----------
Task for the reader: assign each of the following compounds its reported log POW (25° C.).
- protocol_description: log POW, n-octanol/water partition coefficient, OECD Test No. 117
- Format: physicochemical
One number for each entry.

Guide cases for log POW (25° C.), answers given:
compound | recorded_value
OCCCCO | −0.88
OCC(O)CO [1,2,3-trihydroxypropane] | −1.75

I need log POW (25° C.) for every entry listed below, if you could help.
1. CC(O)C(C)O (stereo not shown)
2. CC(O)CO (stereo not shown)

## Output
1. −0.92
2. 1.07
